Numbers sourced from paper PMC10786891.

The following binders are shown together with reported pKd values.
Target: T1, EsCas13d, nuclease-dead (Eubacterium siraeum, UniProt B0MS50, R295A;H300A;R849A;H854A)
T1 sequence: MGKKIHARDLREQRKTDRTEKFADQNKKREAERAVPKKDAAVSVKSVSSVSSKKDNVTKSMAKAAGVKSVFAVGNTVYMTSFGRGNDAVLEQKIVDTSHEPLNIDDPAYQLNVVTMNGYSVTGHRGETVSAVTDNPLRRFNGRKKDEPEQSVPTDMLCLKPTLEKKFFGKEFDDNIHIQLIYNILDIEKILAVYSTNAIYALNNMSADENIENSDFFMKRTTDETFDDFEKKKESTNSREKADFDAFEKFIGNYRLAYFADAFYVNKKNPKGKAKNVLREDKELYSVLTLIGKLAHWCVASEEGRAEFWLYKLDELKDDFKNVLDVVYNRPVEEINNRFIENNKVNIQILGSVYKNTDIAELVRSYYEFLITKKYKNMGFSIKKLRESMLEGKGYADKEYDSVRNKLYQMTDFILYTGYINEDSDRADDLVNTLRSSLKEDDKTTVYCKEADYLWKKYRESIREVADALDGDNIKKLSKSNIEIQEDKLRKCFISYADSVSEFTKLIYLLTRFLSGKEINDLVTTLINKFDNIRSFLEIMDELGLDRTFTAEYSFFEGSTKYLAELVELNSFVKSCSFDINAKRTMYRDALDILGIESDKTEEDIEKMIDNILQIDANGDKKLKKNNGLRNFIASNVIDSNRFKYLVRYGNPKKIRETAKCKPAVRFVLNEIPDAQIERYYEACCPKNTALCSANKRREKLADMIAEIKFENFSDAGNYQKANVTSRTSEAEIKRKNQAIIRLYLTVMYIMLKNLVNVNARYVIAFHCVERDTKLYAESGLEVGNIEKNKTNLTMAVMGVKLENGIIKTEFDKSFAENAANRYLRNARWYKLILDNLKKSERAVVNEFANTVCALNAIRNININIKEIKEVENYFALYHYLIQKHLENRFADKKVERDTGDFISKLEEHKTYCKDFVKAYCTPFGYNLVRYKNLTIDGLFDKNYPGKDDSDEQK
Experiment: crRNA (strand 1, pre-loaded); Mg2+; 40 mM Tris-HCl pH 7.5, 150 mM NaCl, 6 mM MgCl2, 1 mM DTT, 0.1% Tween-20, 0.2 mg/ml BSA; 25 C; 10 min per concentration, then washed
Conditions: tags: His6-TwinStrep-SUMO cleaved; N-terminal SNAP kept (SNAP-Surface 488); label: 3' end held by stalled T7 RNA polymerase
pKd: −log10 of the molar value.

binder: target 1 MT 5'PFS GCA 3'PFS ACA (mixed) RNA 1: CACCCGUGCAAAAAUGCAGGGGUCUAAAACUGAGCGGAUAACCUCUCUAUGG RNA 2: GGGAAUGGAUCCACAUCUACGAAUUCGCACCAUAGAGAGGUUAUCCGCUCAACAAGAUCGGAAGAGCACACGU
pKd: 7.59
//
binder: target 1 insG 3' of 14,insU 3' of 5 (mixed) RNA 1: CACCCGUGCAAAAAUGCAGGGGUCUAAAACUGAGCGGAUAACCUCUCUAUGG RNA 2: GGGAAUGGAUCCACAUCUACGAAUUCGUACCAUAGAGAGGGUUAUCCGUCUCACCGAGAUCGGAAGAGCACACGU
pKd: 7.53
//
binder: target 1 insG 3' of 10,insG 3' of 7 (mixed) RNA 1: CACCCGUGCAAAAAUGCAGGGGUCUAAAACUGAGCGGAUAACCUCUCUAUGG RNA 2: GGGAAUGGAUCCACAUCUACGAAUUCGUACCAUAGAGAGGUUGAUCGCGCUCACCGAGAUCGGAAGAGCACACGU
pKd: 7.90
//
binder: target 3 C6G,U22C (mixed) RNA 1: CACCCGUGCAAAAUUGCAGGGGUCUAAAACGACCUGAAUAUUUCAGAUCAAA RNA 2: GGGAAUGGAUCCACAUCUACGAAUUCGUUCUUGAUCUGAAAUAUUGAGGUCUGCAGAUCGGAAGAGCACACGU
pKd: 7.44
